- targetOrSystem: ALK2 (Homo sapiens)
- Sequence (Q04771 21-509): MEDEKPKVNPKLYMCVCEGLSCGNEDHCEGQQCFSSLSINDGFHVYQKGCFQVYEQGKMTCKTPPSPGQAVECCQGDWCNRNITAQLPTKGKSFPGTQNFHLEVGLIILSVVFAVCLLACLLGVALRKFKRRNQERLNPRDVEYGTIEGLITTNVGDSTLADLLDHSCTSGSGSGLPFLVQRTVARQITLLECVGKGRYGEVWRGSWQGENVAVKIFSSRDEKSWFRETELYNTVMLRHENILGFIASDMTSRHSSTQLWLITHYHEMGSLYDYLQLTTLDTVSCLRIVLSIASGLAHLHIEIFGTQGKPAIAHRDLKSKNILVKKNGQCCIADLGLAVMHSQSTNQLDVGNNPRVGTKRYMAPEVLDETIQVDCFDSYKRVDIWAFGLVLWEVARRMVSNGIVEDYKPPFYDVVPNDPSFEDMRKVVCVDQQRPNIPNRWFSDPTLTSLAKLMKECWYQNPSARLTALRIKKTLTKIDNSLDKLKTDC
- measurementNotes: TR-FRET enzymatic ALK kinase assay, ALK2
Measured log10 IC50, listed per entry.
For clarity, the numbers are log10 values of IC50 expressed in nM.

* CC(C)S(=O)(=O)c1cccc(-c2cnn3cc(-c4ccc(CCN5CCCCC5)cc4)cnc23)c1 | 1.97
* CC1(c2ccc(-c3cnc4c(-c5cccc(S(C)(=O)=O)c5)cnn4c3)cc2)CCNCC1 | 1.52
* CC(N)c1ccc(-c2cnc3c(-c4cccc([S+](C)(=O)[O-])c4)cnn3c2)cc1 (centres unmarked) | 1.52
* CC(O)c1cccc(-c2cnn3cc(-c4ccc(CCN5CCCC(O)C5)cc4)cnc23)c1 (centres unmarked) | 2.15
* C[C@H](O)c1cccc(-c2cnn3cc(-c4ccc(OCCN5CCCC5)cc4)cnc23)c1 | 1.83

Ask | I am curious: what log10 IC50 value has been reported for CS(=O)(=O)c1cccc(-c2cnn3cc(-c4ccc(CCN5CCCCC5)cc4)cnc23)c1 ?
Reply | 1.57

Ask | Same thing, different molecule: C[C@@H]1CNC[C@H](C)N1c1ccc(-c2cnc3c(-c4ccc(C(N)=O)c5ccccc45)cnn3c2)cc1
Reply | 0.78

Ask | What do you get for CCNS(=O)(=O)c1cccc(-c2cnn3cc(-c4ccc(N5[C@H](C)CNC[C@@H]5C)cc4)cnc23)c1 ?
Reply | 1.49

Ask | Ok, now NS(=O)(=O)c1ccc(-c2cnn3cc(-c4ccc(OC(F)(F)CN5CCCCC5)cc4)cnc23)c2ccccc12
Reply | 3.08

Ask | CC(O)c1cccc(-c2cnn3cc(-c4ccc(CCN5CCOCC5)cc4)cnc23)c1 (centres unmarked) ?
Reply | 2.23

---

- targetOrSystem: UniProt:P37023
- Sequence (P37023 22-503): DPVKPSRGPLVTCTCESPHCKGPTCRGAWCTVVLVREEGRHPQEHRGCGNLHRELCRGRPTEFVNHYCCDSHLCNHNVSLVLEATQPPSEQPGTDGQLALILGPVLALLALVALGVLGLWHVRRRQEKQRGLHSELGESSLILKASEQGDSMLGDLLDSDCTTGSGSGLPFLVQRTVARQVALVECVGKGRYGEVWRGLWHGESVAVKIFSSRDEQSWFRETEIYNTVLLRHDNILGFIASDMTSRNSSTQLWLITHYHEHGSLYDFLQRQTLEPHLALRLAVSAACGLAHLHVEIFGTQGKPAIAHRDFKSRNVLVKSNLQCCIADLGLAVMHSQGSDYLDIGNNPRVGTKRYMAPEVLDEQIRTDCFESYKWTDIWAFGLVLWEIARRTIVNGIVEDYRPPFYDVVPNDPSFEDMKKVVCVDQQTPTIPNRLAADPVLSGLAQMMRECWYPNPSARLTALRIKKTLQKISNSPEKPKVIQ
- measurementNotes: TR-FRET enzymatic ALK kinase assay, ALK1
# pIC50 per entry
# reply with the number alone; pIC50 is -log10 of concentration in mol/L

* CN(C)CCc1ccc(-c2cnc3c(-c4ccc(S(N)(=O)=O)c5ccccc45)cnn3c2)cc1 [Compound 68] | 6.17
* C[C@@H](O)c1cccc(-c2cnn3cc(-c4ccc(CCN5CCC(O)CC5)cc4)cnc23)c1 [Compound 159] | 6.00
* CC(O)c1cccc2c(-c3cnn4cc(-c5ccc(N6[C@H](C)CNC[C@@H]6C)cc5)cnc34)cccc12 (stereo partly drawn) [Compound 33] | 5.82
* CC(O)c1cccc(-c2cnn3cc(-c4ccc(C5(N)CC5)cc4)cnc23)c1 (stereo not drawn) [Compound 191] | 5.82
* CC(O)c1cccc(-c2cnn3cc(-c4ccc(OCCN5CCCC5)cc4)cnc23)c1 (stereo not drawn) [Compound 145] | 6.00

As a next step, examine the molecule that follows.
Ask | Look up pIC50 for this molecule: C[C@@H]1CNC[C@H](C)N1c1ccc(-c2cnc3c(-c4ccc(S(N)(=O)=O)c(N)c4)cnn3c2)cc1 [Compound 57]
Reply | 6.12

---

- targetOrSystem: ALK6 (Homo sapiens, UniProt O00238)
- Sequence (O00238 14-502): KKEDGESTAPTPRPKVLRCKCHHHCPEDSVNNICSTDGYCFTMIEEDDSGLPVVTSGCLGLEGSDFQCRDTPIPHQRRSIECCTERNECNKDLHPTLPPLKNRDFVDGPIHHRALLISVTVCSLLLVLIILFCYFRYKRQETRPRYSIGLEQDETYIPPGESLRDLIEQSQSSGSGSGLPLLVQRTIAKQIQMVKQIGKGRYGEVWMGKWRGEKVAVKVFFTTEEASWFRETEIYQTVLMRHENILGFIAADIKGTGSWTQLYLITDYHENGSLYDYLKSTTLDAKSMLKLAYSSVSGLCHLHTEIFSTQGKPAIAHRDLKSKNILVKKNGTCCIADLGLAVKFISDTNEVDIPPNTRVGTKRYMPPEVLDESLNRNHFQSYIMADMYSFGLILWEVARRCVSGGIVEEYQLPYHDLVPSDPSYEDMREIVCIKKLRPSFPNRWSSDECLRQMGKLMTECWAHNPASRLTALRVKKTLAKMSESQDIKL
- measurementNotes: TR-FRET enzymatic ALK kinase assay, ALK6
measuredMetric: IC50

Known IC50 results, listed for orientation:
- C[C@@H]1CNC[C@H](C)N1c1ccc(-c2cnc3c(-c4cccc(C#N)c4)cnn3c2)cc1 [Compound 69]: > 10 µM
- CCS(=O)(=O)c1cccc(-c2cnn3cc(-c4ccc(CCN5CCCCC5)cc4)cnc23)c1 [Compound 106]: > 10 µM
- C[C@@H](O)c1cccc(-c2cnn3cc(-c4ccc(CCN5CCOCC5)cc4)cnc23)c1 [Compound 158]: > 10 µM
- O=C(O)c1ccc(-c2cnn3cc(-c4ccc(N5CCNCC5)cc4)cnc23)c2ccccc12 [Compound 1]: 1.74 µM
- CC(O)c1cccc(-c2cnn3cc(-c4ccc(C(F)(F)CN5CCCCC5)cc4)cnc23)c1 (centres unmarked) [Compound 127]: > 10 µM

Ask | What does the data say about its IC50? Entry: CN1CCC(c2ccc(-c3cnc4c(-c5cccc(S(C)(=O)=O)c5)cnn4c3)cc2)CC1 [Compound 91]
Reply | > 10 µM

Ask | Proceed to CN1CCN(c2ccc(-c3cnc4c(-c5ccc(S(N)(=O)=O)c6ccccc56)cnn4c3)cc2)CC1 [Compound 62]
Reply | > 10 µM

Ask | For CN1CCN(c2ccc(-c3cnc4c(-c5ccc(S(N)(=O)=O)c6ccccc56)cnn4c3)cn2)CC1 [Compound 48] then?
Reply | > 10 µM

Ask | Consider next the molecule C[C@@H]1CNC[C@H](C)N1c1ccc(-c2cnc3c(-c4cccc(C(N)=O)c4)cnn3c2)cc1 [Compound 67] in the same way.
Reply | 2.1 µM

Ask | One more molecule: CC(O)c1cccc(-c2cnn3cc(-c4ccc(C5(C)CCNCC5)cc4)cnc23)c1 (centres unmarked) [Compound 136]
Reply | > 10 µM

Ask | Field entry: CS(=O)(=O)c1cccc(-c2cnn3cc(-c4ccc(CCN5CCCC5)cc4)cnc23)c1 [Compound 128]
Reply | > 10 µM

---

Attribute: pIC50
- targetOrSystem: ALK3 (Homo sapiens)
- Sequence (P36894 24-532): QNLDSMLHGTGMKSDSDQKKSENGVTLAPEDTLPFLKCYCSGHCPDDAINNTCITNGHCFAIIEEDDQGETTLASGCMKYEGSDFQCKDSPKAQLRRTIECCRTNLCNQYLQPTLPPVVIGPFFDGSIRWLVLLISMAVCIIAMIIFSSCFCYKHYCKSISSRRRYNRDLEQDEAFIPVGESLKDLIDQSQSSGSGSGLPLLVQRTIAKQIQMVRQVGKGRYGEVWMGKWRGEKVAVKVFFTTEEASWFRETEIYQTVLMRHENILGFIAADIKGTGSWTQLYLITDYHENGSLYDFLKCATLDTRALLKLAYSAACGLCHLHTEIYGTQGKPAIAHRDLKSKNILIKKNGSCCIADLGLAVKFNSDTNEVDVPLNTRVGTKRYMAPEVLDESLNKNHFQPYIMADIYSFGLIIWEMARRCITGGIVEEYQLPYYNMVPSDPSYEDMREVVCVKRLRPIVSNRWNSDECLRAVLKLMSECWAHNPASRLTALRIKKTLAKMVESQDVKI
- measurementNotes: TR-FRET enzymatic ALK kinase assay, ALK3
Remember, pIC50 is on a log scale: it is -log10 of the molar concentration.

Before answering, review these 2 worked examples.
- CC(C)(CN1CCCCC1)Oc1ccc(-c2cnc3c(-c4ccc(C(N)=O)c5ccccc45)cnn3c2)cc1: 7.21
- CC(C)S(=O)(=O)c1cccc(-c2cnn3cc(-c4ccc(CCN5CCCCC5)cc4)cnc23)c1: 5.34

--- query ---
Ask | Would you mind telling me what pIC50 value was observed for CS(=O)(=O)c1cccc(-c2cnn3cc(-c4ccc(C5CCCNC5)cc4)cnc23)c1 (centres unmarked) ?
Reply | 5.32

---

- targetOrSystem: ALK6 (Homo sapiens)
- measurementNotes: TR-FRET enzymatic ALK kinase assay, ALK6
Here, each record is paired with measured IC50 data.

Please review the entries below; each comes with its answer.
* C[C@@H]1CNC[C@H](C)N1c1ccc(-c2cnc3c(-c4cccc5c(CO)cccc45)cnn3c2)cc1 | 3.71 µM
* C[C@@H](O)c1cccc(-c2cnn3cc(-c4ccc(CCN5CCC(O)CC5)cc4)cnc23)c1 | > 10 µM
* NS(=O)(=O)c1ccc(-c2cnn3cc(-c4ccc(C5(O)CCNCC5)cc4)cnc23)c2ccccc12 | > 10 µM
* CS(=O)(=O)c1cccc(-c2cnn3cc(-c4ccc(CN5CCCC5)cc4)cnc23)c1 | 9.8 µM
* NC(c1ccc(-c2cnn3cc(-c4ccc(OCCN5CCCC5)cc4)cnc23)c2ccccc12)C(F)(F)F (stereo not shown) | > 10 µM
* O=[S+]([O-])(c1cccc(-c2cnn3cc(-c4ccc(CCN5CCCCC5)cc4)cnc23)c1)C1CC1 | 9.8 µM
* CC(N)c1ccc(-c2cnc3c(-c4cccc([S+](C)(=O)[O-])c4)cnn3c2)cc1 (stereo not shown) | > 10 µM
* NC(c1cccc(-c2cnn3cc(-c4ccc(OC5(CN6CCC(O)C6)CC5)cc4)cnc23)c1)C(F)(F)F (stereo not shown) | > 10 µM

Ask | Entry under review: C[C@@H](O)c1cccc(-c2cnn3cc(-c4ccc(CCN5CCC(O)C5)cc4)cnc23)c1 (stereo partly shown) . Reported IC50?
Reply | > 10 µM

Ask | Next record, please: CC(O)c1cccc(-c2cnn3cc(-c4ccc(OC5(CN6CCNCC6)CC5)cc4)cnc23)c1 (stereo not shown)
Reply | > 10 µM

---

- targetOrSystem: ALK2 (Homo sapiens, UniProt Q04771)
- measurementNotes: TR-FRET enzymatic ALK kinase assay, ALK2
measuredMetric: IC50
Output should be the measured figure followed by the unit it is expressed in.

Here are 3 compounds together with their reported answers.
- C[S+](=O)([O-])c1cccc(-c2cnn3cc(-c4ccc(OC5(CN6CC(F)(F)C6)CC5)cc4)cnc23)c1: 68 nM
- CS(=O)(=O)c1cccc(-c2cnn3cc(-c4ccc(CCN5CCCC(O)C5)cc4)cnc23)c1 (centres unmarked): 98 nM
- CN(C)CCc1ccc(-c2cnc3c(-c4ccc(S(N)(=O)=O)c5ccccc45)cnn3c2)cc1: 200 nM

Ask | Give ALK2 (Homo sapiens, UniProt Q04771) IC50 for NS(=O)(=O)c1ccc(-c2cnn3cc(-c4ccc(OC5(CN6CCCCC6)CC5)cc4)cnc23)c2ccccc12
Reply | 15 nM

Ask | Another: CS(=O)(=O)c1cccc(-c2cnn3cc(-c4ccc(CN5CCCCC5)cc4)cnc23)c1
Reply | 56 nM
